System Tested: 5-lipoxygenase (Rattus norvegicus)
Construct: Dosage of 5-lipoxygenase of rat neutrophiles; endogenous in cells
Sequence (P12527 whole entry): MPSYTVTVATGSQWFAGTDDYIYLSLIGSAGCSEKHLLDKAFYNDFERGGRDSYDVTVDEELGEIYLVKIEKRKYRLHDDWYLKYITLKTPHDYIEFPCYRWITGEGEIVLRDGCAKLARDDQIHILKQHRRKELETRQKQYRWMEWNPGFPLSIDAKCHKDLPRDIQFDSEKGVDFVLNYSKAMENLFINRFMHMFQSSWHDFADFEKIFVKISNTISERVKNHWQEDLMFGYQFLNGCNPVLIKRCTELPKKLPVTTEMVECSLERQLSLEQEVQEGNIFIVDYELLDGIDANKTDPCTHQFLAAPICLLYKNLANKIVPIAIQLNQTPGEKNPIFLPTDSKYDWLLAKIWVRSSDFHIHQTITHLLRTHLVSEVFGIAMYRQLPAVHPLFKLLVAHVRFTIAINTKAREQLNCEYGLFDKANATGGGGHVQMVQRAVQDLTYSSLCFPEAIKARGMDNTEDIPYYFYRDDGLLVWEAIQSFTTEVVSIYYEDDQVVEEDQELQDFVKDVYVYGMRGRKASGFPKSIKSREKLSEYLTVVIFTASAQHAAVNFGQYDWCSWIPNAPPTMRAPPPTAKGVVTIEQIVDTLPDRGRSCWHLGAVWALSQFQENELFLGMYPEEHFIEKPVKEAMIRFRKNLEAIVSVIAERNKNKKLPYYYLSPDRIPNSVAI
Method Notes: Dosage of 5-lipoxygenase of rat neutrophiles (Leucotriene B4 by radioimmunoassay)
Run Parameters: rat peritoneal neutrophiles, 10 μM ionophore A 23187, Leucotriene B4; read-out: CI50 5-lipoxygenase
Collected IC50 values appear next to each entry.

Molecule | IC50 [µM]
CC(C(=O)O)c1cc2c(s1)C1(CCCCC1)CC2 (centres unmarked) | 10
CC(C(=O)N(C)O)c1cc2c(s1)C1(CCCCC1)CC2 (centres unmarked) | 0.5
